- System: LoVo-Dox
- assayInfo: SRB colorimetric assay of cell growth and viability, LoVo-Dox
- Type: cell-based, human
- conditionSet: LOVO-DOX; 48 hours exposure; read-out: LC50 LOVO-DOX
Where a SMILES comes first, the peptide text is derived from it. Bridges are numbered along the chain shown (N, C = ends). [ ]: non-standard residue; d: D form. The star is where a group is joined. Bip = N[C@@H](Cc1ccc(-c2ccccc2)cc1)C(=O)O; d(aIle) = CC[C@H](C)[C@@H](N)C(=O)O; d(aThr) = C[C@@H](O)[C@@H](N)C(=O)O; Hexanoyl(5-Me) = CC(C)CCCC(=O)*; Orn = NCCC[C@H](N)C(=O)O; Dhb = C/C=C(\N)C(=O)O
assayMetric: CC50

* C/C=C1\NC(=O)[C@H](Cc2ccccc2)NC(=O)[C@@H](C(C)C)NC(=O)[C@@H]([C@@H](C)CC)NC(=O)[C@H](NC(=O)[C@H](NC(=O)[C@H](CCCN)NC(=O)[C@@H]2CCCN2C(=O)[C@H](NC(=O)[C@@H](NC(=O)[C@@H](NC(=O)[C@H](NC(=O)CC[C@@H](C)CC)C(C)C)[C@@H](C)O)C(C)C)C(C)C)[C@@H](C)CC)[C@@H](C)OC(=O)[C@H](C(C)C)NC1=O [Compound 59, [Pro^9, (4S)-MeHex^14]-KF] | ≥ 6.76 µM

Consider the record given below.
Input line: # CC50 lookup, item C/C=C1\NC(=O)[C@H](Cc2ccc(-c3ccccc3)cc2)NC(=O)[C@@H](C(C)C)NC(=O)[C@@H]([C@@H](C)CC)NC(=O)[C@H](NC(=O)[C@H](NC(=O)[C@H](CCCN)NC(=O)[C@H]2CCCN2C(=O)[C@H](NC(=O)[C@@H](NC(=O)[C@@H](NC(=O)[C@H](NC(=O)CCCC(C)C)C(C)C)[C@@H](C)O)C(C)C)C(C)C)[C@@H](C)CC)[C@@H](C)OC(=O)[C@H](C(C)C)NC1=O [Compound 86, [Bip^3]-KF] ({Hexanoyl(5-Me)}-[dV]TV[dV][dP][Orn][d(aIle)][d(aThr)][d(aIle)][dV][Bip][Dhb]V; ester 8-C)
Output line: ≥ 6.43 µM

====

- Test system: SK-MEL-28
- assayInfo: SRB colorimetric assay of cell growth and viability, SK-MEL-28
- Format: cell-based, human
- conditionSet: MEL-28; 48 hours exposure
Where a SMILES comes first, the peptide text is derived from it. Bridges are numbered along the chain shown (N, C = ends). [ ]: non-standard residue; d: D form. The star is where a group is joined. d(aIle) = CC[C@H](C)[C@@H](N)C(=O)O; d(aThr) = C[C@@H](O)[C@@H](N)C(=O)O; Hexanoyl(5-Me) = CC(C)CCCC(=O)*; Orn = NCCC[C@H](N)C(=O)O; Dhb = C/C=C(\N)C(=O)O
GI50 values, listed per item
Note: unit nM is implicit; provide only the numeric part.

* C/C=C1\NC(=O)[C@H](Cc2ccccc2)NC(=O)[C@@H](C(C)C)NC(=O)[C@@H]([C@@H](C)CC)NC(=O)[C@H](NC(=O)[C@H](NC(=O)[C@H](CCCN)NC(=O)[C@H]2CCCN2C(=O)[C@H](NC(=O)[C@@H](NC(=O)[C@H](CCCN)NC(=O)[C@H](NC(=O)CCCC(C)C)C(C)C)C(C)C)C(C)C)[C@@H](C)CC)[C@@H](C)OC(=O)[C@H](C(C)C)NC1=O [Compound 116, [Orn^12]-KF] ({Hexanoyl(5-Me)}-[dV][Orn]V[dV][dP][Orn][d(aIle)][d(aThr)][d(aIle)][dV]F[Dhb]V; ester 8-C) | 4320

Consider the record given below.
Input line: # GI50 lookup, item C/C=C1\NC(=O)[C@H](Cc2ccccc2)NC(=O)[C@@H](C(C)C)NC(=O)[C@@H]([C@@H](C)CC)NC(=O)[C@H](NC(=O)[C@H](NC(=O)[C@H](CCCN)NC(=O)[C@H]2CCCN2C(=O)[C@H](NC(=O)[C@@H](NC(=O)CNC(=O)[C@H](NC(=O)CCCC(C)C)C(C)C)C(C)C)C(C)C)[C@@H](C)CC)[C@@H](C)OC(=O)[C@H](C(C)C)NC1=O [Compound 111, [Gly^12]-KF] ({Hexanoyl(5-Me)}-[dV]GV[dV][dP][Orn][d(aIle)][d(aThr)][d(aIle)][dV]F[Dhb]V; ester 8-C)
Output line: 250

====

CC50 values, listed per item
- Test system: LoVo-Dox
- assayInfo: SRB colorimetric assay of cell growth and viability, LoVo-Dox
- Format: cell-based, human
- conditionSet: 48 hours exposure; read-out: LC50 LOVO-DOX
Note: unit µM is implicit; provide only the numeric part.

Recorded CC50, per entry:
• C/C=C1\NC(=O)[C@H](Cc2ccccc2)NC(=O)[C@@H](C(C)C)NC(=O)[C@@H]([C@@H](C)CC)NC(=O)[C@H](NC(=O)[C@H](NC(=O)[C@H](CCCN)NC(=O)[C@H]2CCCN2C(=O)[C@H](NC(=O)[C@@H](NC(=O)[C@@H](NC(=O)[C@H]2CCCN2C(=O)CCCC(C)C)[C@@H](C)O)C(C)C)C(C)C)[C@@H](C)CC)[C@@H](C)OC(=O)[C@H](C(C)C)NC1=O [Compound 37, [D-Pro^13]-KF] = 6.78
• C/C=C1\NC(=O)[C@H](Cc2ccccc2)NC(=O)[C@@H](C(C)C)NC(=O)[C@@H](C(C)CC)NC(=O)[C@H](NC(=O)[C@H](NC(=O)[C@H](CCCN)NC(=O)[C@H]2CCCN2C(=O)[C@H](NC(=O)[C@@H](NC(=O)[C@@H](NC(=O)[C@H](NC(=O)CCC(C)CC)C(C)C)C(C)O)C(C)C)C(C)C)C(C)CC)C(C)OC(=O)[C@H](C(C)C)NC1=O (stereo partly drawn) = 1.43

Input line: # CC50 lookup, item C/C=C1\NC(=O)[C@H](Cc2ccccc2)NC(=O)[C@@H](C(C)C)NC(=O)[C@@H]([C@@H](C)CC)NC(=O)[C@H](NC(=O)[C@H](NC(=O)[C@H](CCCN)NC(=O)[C@H]2CCCN2C(=O)[C@H](NC(=O)[C@@H](NC(=O)[C@@H](NC(=O)[C@@H](NC(=O)CCCC(C)C)C(C)C)[C@@H](C)O)C(C)C)C(C)C)[C@@H](C)CC)[C@@H](C)OC(=O)[C@H](C(C)C)NC1=O [Compound 38, [Val^13]-KF]
Output line: 3.36

====

- Tested on: SK-MEL-28
- assayInfo: SRB colorimetric assay of cell growth and viability, SK-MEL-28
- Type: cell-based, human
- conditionSet: 48 hours exposure
Where a SMILES comes first, the peptide text is derived from it. Bridges are numbered along the chain shown (N, C = ends). [ ]: non-standard residue; d: D form. The star is where a group is joined. d(aIle) = CC[C@H](C)[C@@H](N)C(=O)O; d(aThr) = C[C@@H](O)[C@@H](N)C(=O)O; Hexanoyl(5-Me) = CC(C)CCCC(=O)*; Orn = NCCC[C@H](N)C(=O)O; Dhb = C/C=C(\N)C(=O)O
assayMetric: TGI MEL-28 (Molar)
Note: unit Molar is implicit; provide only the numeric part.

* C/C=C1\NC(=O)[C@H](Cc2ccccc2)NC(=O)[C@@H](C(C)C)NC(=O)[C@@H]([C@@H](C)CC)NC(=O)[C@H](NC(=O)[C@H](NC(=O)[C@H](CCCN)NC(=O)[C@H]2CCCN2C(=O)[C@H](NC(=O)[C@@H](NC(=O)[C@@H](NC(=O)CNC(=O)CCCC(C)C)[C@@H](C)O)C(C)C)C(C)C)[C@@H](C)CC)[C@@H](C)OC(=O)[C@H](C(C)C)NC1=O [Compound 33, [Gly^13]-KF] | 6.96E−06
* C/C=C1\NC(=O)[C@H](Cc2ccccc2)NC(=O)[C@@H](C(C)C)NC(=O)[C@@H]([C@@H](C)CC)NC(=O)[C@H](NC(=O)[C@H](NC(=O)[C@H](CCCN)NC(=O)[C@H]2CCCN2C(=O)[C@H](NC(=O)[C@@H](NC(=O)[C@@H](NC(=O)[C@@H](C)NC(=O)CCCC(C)C)[C@@H](C)O)C(C)C)C(C)C)[C@@H](C)CC)[C@@H](C)OC(=O)[C@H](C(C)C)NC1=O [Compound 34, [D-Ala^13]-KF] | 3.01E−06
* C/C=C1\NC(=O)[C@H](Cc2ccccc2)NC(=O)[C@@H](C(C)C)NC(=O)[C@@H]([C@@H](C)CC)NC(=O)[C@H](NC(=O)[C@H](NC(=O)[C@H](CCCN)NC(=O)[C@H]2CCCN2C(=O)[C@H](NC(=O)[C@@H](NC(=O)[C@H](CCCN)NC(=O)CCCC(C)C)C(C)C)C(C)C)[C@@H](C)CC)[C@@H](C)OC(=O)[C@H](C(C)C)NC1=O [Compound 57, [Orn^12, noD-Val^13]-KF] ({Hexanoyl(5-Me)}-[Orn]V[dV][dP][Orn][d(aIle)][d(aThr)][d(aIle)][dV]F[Dhb]V; ester 7-C) | 7.18E−06

Input line: Look up TGI MEL-28 with SK-MEL-28 for this compound: C/C=C1\NC(=O)[C@H](Cc2ccccc2)NC(=O)[C@@H](C(C)C)NC(=O)[C@@H]([C@@H](C)CC)NC(=O)[C@H](NC(=O)[C@H](NC(=O)[C@H](CCCN)NC(=O)[C@H]2CCCN2C(=O)[C@H](NC(=O)[C@@H](NC(=O)[C@H](CC(C)C)NC(=O)CCCC(C)C)C(C)C)C(C)C)[C@@H](C)CC)[C@@H](C)OC(=O)[C@H](C(C)C)NC1=O [Compound 54, [Leu^12, noD-Val^13]-KF] ({Hexanoyl(5-Me)}-LV[dV][dP][Orn][d(aIle)][d(aThr)][d(aIle)][dV]F[Dhb]V; ester 7-C)
Output line: 2.20E−06

Input line: Look up TGI MEL-28 with SK-MEL-28 for this compound: C/C=C1\NC(=O)[C@H](Cc2ccccc2)NC(=O)[C@@H](C(C)C)NC(=O)[C@@H]([C@@H](C)CC)NC(=O)[C@H](NC(=O)[C@H](NC(=O)[C@H](CCCN)NC(=O)[C@H]2CCCN2C(=O)[C@H](NC(=O)[C@@H](NC(=O)[C@@H](NC(=O)[C@H](NC(=O)Cc2ccc(C(F)(F)F)cc2)C(C)C)[C@@H](C)O)C(C)C)C(C)C)[C@@H](C)CC)[C@@H](C)OC(=O)[C@H](C(C)C)NC1=O [Compound 25, [p-CF3PhAc^14]-KF]
Output line: 2.14E−05
